readout: melting point

structureNotation	readout	result
CCOC(=O)c1cn(Cc2ccc(Oc3ccccc3)cc2)nc1OCc1ccc(OCc2nc(-c3ccco3)oc2C)c(OC)c1	melting point	98 to 99 °C
CCOC(=O)CCc1cn(Cc2ccc(OCc3cn4c(Cl)cccc4n3)cc2)nc1OCC	melting point	69 to 70 °C
CCOc1nn(Cc2ccc(OCCn3ncc4ccccc4c3=O)cc2)cc1CCC(=O)O	melting point	152 to 153 °C
CCOc1cc(Cn2cc(CCC(=O)O)c(-c3ccccc3)c2)cc(OCc2csc(-c3cnccn3)n2)c1	melting point	97 to 98 °C
O=C(O)CCc1cn(Cc2ccc(OCc3ccc4ccccc4n3)cc2)nc1-c1ccc(F)cc1	melting point	178 to 179 °C

Query: GET /values?readout=melting point&item= "CCOc1cc(Cn2cc(CCC(=O)O)c(OCC)n2)ccc1OCc1nc(-c2ccccc2)oc1C"
Response: 105 to 106 °C

Query: GET /values?readout=melting point&item= "CCCc1c(CCC(=O)O)cnn1Cc1ccc(OCc2nc(-c3ccccc3)oc2C)cc1"
Response: 158 to 159 °C

Query: GET /values?readout=melting point&item= "Cc1oc(-c2ccccc2)nc1CCOc1ccc(Cn2cc(CCC(=O)O)c(-c3ccccc3)n2)cc1"
Response: 142 to 143 °C

###

Below, each entry is listed alongside its reported inhibition in vivo at 0.001 %.
# Tested on: KKA^y mice
# protocolText: Hypoglycemic and hypolipidemic actions in mice
# Assay type: in vivo
# conditionParameters: Mus musculus, po, 96 h, 0.001% in powdery diet, four days, percent reduction of plasma glucose compared with the non-treatment group, read-out: Hypoglycemic action (%)
Output spec: scalar in %, unitless text.

structureNotation	readout	numericValue
CCOc1nn(Cc2ccc(OCc3nc(-c4ccco4)oc3C)cc2)cc1CCC(=O)O	inhibition in vivo at 0.001 %	48
CCCOc1nn(Cc2ccc(OCc3nc(-c4ccccc4)oc3C)cc2)cc1CCC(=O)O	inhibition in vivo at 0.001 %	45

Consider the additional compound presented here.
Query: GET /values?readout=inhibition in vivo at 0.001 %&item= "CCOc1nn(Cc2ccc(OCc3nc(-c4ccccc4)oc3C)c(OC)c2)cc1CCC(=O)O"
Response: 42

###

Below, each entry is listed alongside its reported melting point.

Query: GET /values?readout=melting point&item= "O=C(O)c1cn(Cc2ccc(Oc3ccccc3)cc2)nc1OCc1ccc(Oc2ccccc2)cc1"
Response: 141 to 142 °C

###

Below, each entry is listed alongside its reported melting point.

Below, each entry is followed by its recorded melting point result.
structureNotation	melting point
Cc1oc(-c2ccccc2)nc1COc1ccc(Cn2cc(CCCCC(=O)O)c(-c3ccccc3)n2)cc1	109 to 110 °C
Cc1oc(-c2ccco2)nc1COc1ccc(Cn2cc(CC(=O)O)c(-c3ccccc3)n2)cn1	135 to 136 °C
Cc1ncccc1COc1ccc2cc(Cn3cc(CCC(=O)O)c(-c4ccccc4)c3)ccc2c1	163 to 164 °C

Query: GET /values?readout=melting point&item= "O=C(O)CCc1cn(Cc2ccc(OCc3ccc(-c4ccccc4)cn3)cc2)nc1-c1ccccc1"
Response: 149 to 150 °C

Query: GET /values?readout=melting point&item= "CCOc1nn(Cc2ccc(OCc3nc(-c4ccccc4)oc3C)cc2)cc1CC(=O)O"
Response: 125 to 126 °C

Reference source: patent US7179823B1
